system: P388 leukemia ip, CD2F1 mice, survival T/C; test: NCI In Vivo Anticancer Drug Screen. Data for tumor model P388 Leukemia (intraperitoneal) in CD2F1 (CDF1) mice; details: endpoint: median survival time; dose: 200.0 mg/kg/injection; schedule: Q01DX005 (ip); vehicle: Klucel (hydroxypropylcellulose) (HPC); higher = longer survival
Inconclusive results and toxic doses are left out.
Readout Name: T/C

>>> value("N#Cc1c(-c2cccn(-c3ccccc3)c2=O)cc(-c2ccccc2)[nH]c1=O")
"110 % of control"
>>> value("Nc1cc2[nH]c(=O)oc2cc1Cl")
"94 % of control"
>>> value("CC1=CC(=O)N2CC(=O)N(C)c3ccc(Cl)cc3C2(c2ccccc2)O1 (stereo not given)")
"92 % of control"
>>> value("Cc1ccc(-c2nnc3cc(C)n4nnnc4n23)cc1")
"107 % of control"
>>> value("COc1ccccc1[B-]12OCC[N+]1(CNC(=O)c1ccccc1O)CCO2 (stereo not given)")
"103 % of control"
>>> value("Cc1ccc(C(=O)/C([S-])=C(\\Nc2cccc(Cl)c2)[n+]2ccccc2)cc1")
"93 % of control"
>>> value("CC(=O)CSC1=CC(C)(C)CC1=O")
"99 % of control"
>>> value("CN(C)c1nnn(Cc2ccccc2)n1")
"104 % of control"
>>> value("C/C(=N\\NC(N)=O)c1ccc(Cl)c(-n2cccc2)c1")
"94 % of control"
>>> value("CN1C(=O)/C(=C2\\SC(=O)N(CN3CCOCC3)C2=O)c2cc(Br)ccc21")
"97 % of control"
>>> value("CCOC(=O)C1=C(C)N[C@@H](c2ccccc2[N+](=O)[O-])N[C@H]1c1ccccc1[N+](=O)[O-]")
"92 % of control"
>>> value("COC(=O)C1=C/N(C)CCC/C(C(N)=O)=C\\1")
"94 % of control"
>>> value("CCOC(=O)C1=C(C)NC(=O)NC1c1ccc(N(C)C)cc1 (stereo not given)")
"97 % of control"
>>> value("CCCCC(CC)C(=O)OCCNC(=O)C(C)OC(=O)C(CC)CCCC (stereo not given)")
"105 % of control"
>>> value("CN1CN(c2ccc([N+](=O)[O-])cc2)N=N1")
"94 % of control"
>>> value("Cn1c2c(c(=O)c3ccccc31)CCC(C)(C)O2")
"98 % of control"
>>> value("CCCNC(=O)CCC(NS(=O)(=O)c1ccc(NC(C)=O)cc1)C(=O)O (stereo not given)")
"100 % of control"
>>> value("O=P1(N2CCOCC2)OC(c2ccccc2)=CCN1c1ccc(Cl)cc1 (stereo not given)")
"95 % of control"
>>> value("COC1=C(OC)S[C@H]2[C@@H]3C[C@@H]([C@H]4CC=C[C@@H]34)[C@H]2S1")
"97 % of control"
>>> value("c1cc[c]([Ge]([O][Ge]([c]2ccccc2)[c]2ccccc2)[c]2ccccc2)cc1.c1cc[c]([Ge]([O][Ge]([c]2ccccc2)[c]2ccccc2)[c]2ccccc2)cc1")
"89 % of control"

====

tested on: P388 leukemia ip, CD2F1 mice, survival T/C; test: NCI In Vivo Anticancer Drug Screen. Data for tumor model P388 Leukemia (intraperitoneal) in CD2F1 (CDF1) mice; details: endpoint: median survival time; dose: 120.0 mg/kg/injection; schedule: Q01DX005 (ip); vehicle: Klucel (hydroxypropylcellulose) (HPC); higher = longer survival
Inconclusive results and toxic doses are left out.
Readout Name: T/C

>>> value("CC(C)(C)n1nc(C2CC2)c(Br)c1NC(=O)c1ccccc1F")
"104 % of control"
>>> value("O=C(NC1COB(c2cccc([N+](=O)[O-])c2)OC1c1ccc([N+](=O)[O-])cc1)C(Cl)Cl (stereo unspecified)")
"98 % of control"
>>> value("COC(=O)c1[nH]c(=O)c(C#N)c(C(=O)OC)c1C(=O)c1ccc2ccccc2c1")
"88 % of control"
>>> value("COc1cccc(/C=C/C(C)=N/NC(N)=O)c1")
"100 % of control"
>>> value("O=C1C2=C(Nc3cc([N+](=O)[O-])ccc3N2)OC1c1cccc([N+](=O)[O-])c1 (stereo unspecified)")
"96 % of control"
>>> value("COc1ccc(C(c2cc3c(cc2O)OCO3)N2CCOCC2)c(OC)c1 (stereo unspecified)")
"99 % of control"
>>> value("Cc1cccc(C(O)c2cnc(C)n2Cc2ccccc2)c1 (stereo unspecified)")
"109 % of control"
>>> value("CC12CCCC([N+](=O)[O-])(C1)NC(=O)C2C#N (stereo unspecified)")
"95 % of control"
>>> value("C/C(CC1C(CCO)C1(C)C)=N\\NC(N)=O (stereo unspecified)")
"100 % of control"
>>> value("CCOC(=O)C(C(=O)OCC)=S1c2ccccc2Sc2ccccc21")
"89 % of control"
>>> value("CCOc1cc2c(cc1Cc1cc(OC)c(OC)c(OC)c1)OCO2")
"98 % of control"

====

# T/C per record follows
tested on: P388 leukemia ip, CD2F1 mice, survival T/C; assay: NCI In Vivo Anticancer Drug Screen. Data for tumor model P388 Leukemia (intraperitoneal) in CD2F1 (CDF1) mice; conditions: endpoint: median survival time; dose: 12.5 mg/kg/injection; schedule: Q01DX009 (ip); vehicle: saline; higher = longer survival
Toxic doses and inconclusive results are not listed.
Readout Name: T/C

>>> value("CCCCCCCCCC[N+]1(CC)CCCCC1")
"105 % of control"
>>> value("C=C(C)CCC(N)C(=O)O (stereo not drawn)")
"107 % of control"
>>> value("O=c1[nH]c(=O)c2sc3ncccc3c2[nH]1")
"100 % of control"
>>> value("CC[n+]1ccc(/C=C\\c2c(Cl)cccc2Cl)cc1")
"104 % of control"
>>> value("Nc1nc(N)c2nnn(C3OC(CO)C(O)C3O)c2n1 (stereo not drawn)")
"122 % of control"
>>> value("CCC[CH2][Sn]([CH2]CCC)([CH2]CCC)[CH2]CCNCCCN(C)C")
"97 % of control"
>>> value("CCCCCCCCCCCCCCOCC(O)CN(CCO)CCO (stereo not drawn)")
"105 % of control"
>>> value("CC(=O)SCN1CCCCC1")
"108 % of control"
>>> value("CCOC(=O)C(=O)Nc1ccc2cc(OC)ccc2c1C#N")
"94 % of control"
>>> value("N=C(N)c1ccc(N=C(N)Nc2ccc(C(=N)N)cc2)cc1")
"95 % of control"
>>> value("CCN(CC)CCNc1ccc([N+](=O)[O-])c2sc3ccccc3c(=O)c12")
"112 % of control"
>>> value("N#C/C(=C\\c1c2ccccc2c(Cl)c2ccccc12)C(N)=S")
"88 % of control"
>>> value("OCC1OC(Nc2ccccc2/C=N\\O)C(O)C1O (stereo not drawn)")
"98 % of control"

====

system: P388 leukemia ip, CD2F1 mice, survival T/C; assay: NCI In Vivo Anticancer Drug Screen. Data for tumor model P388 Leukemia (intraperitoneal) in CD2F1 (CDF1) mice; settings: endpoint: median survival time; dose: 3.13 mg/kg/injection; schedule: Q01DX009 (ip); vehicle: saline with Tween-80; higher = longer survival
Toxic doses and inconclusive results are not listed.
Quick reference: T/C of the listed items.
Readout Name: T/C

>>> value("CCCC1CC[N-]CC1.CCCC1CC[N-]CC1.[Br][Pt+2]([Br])([Br])[Br]")
"87 % of control"
>>> value("CC1(C)OC2OC(COC(=O)c3ccccc3)C(=O)C2O1 (centres undefined)")
"95 % of control"
>>> value("CCN1CCCC(OC(=O)c2cccc3[nH]ccc23)C1 (centres undefined)")
"118 % of control"
>>> value("O=C(CNC(=O)c1ccc(Cl)cc1Cl)N/N=C/c1ccc(Cl)c(Cl)c1")
"104 % of control"

====

system: P388 leukemia ip, CD2F1 mice, survival T/C; experiment: NCI In Vivo Anticancer Drug Screen. Data for tumor model P388 Leukemia (intraperitoneal) in CD2F1 (CDF1) mice; details: endpoint: median survival time; dose: 100.0 mg/kg/injection; schedule: Q01DX009 (ip); vehicle: Klucel (hydroxypropylcellulose) (HPC); higher = longer survival
Toxic doses and inconclusive results are not listed.
Readout Name: T/C

>>> value("COC1CCC(/C=C(\\C#N)C2CCC(OC)CC2)CC1 (stereo unspecified)")
"96 % of control"
>>> value("CCOC(=O)CNC(=O)Oc1ccc(Cl)cn1")
"97 % of control"
>>> value("CC1(O)CC23CC1CCC2(C)C12CCCC(C)(C(=O)O1)C2CC3O (stereo unspecified)")
"103 % of control"
>>> value("Cc1cc(C(C)(C)C)ccc1SP(Sc1ccc(C(C)(C)C)cc1C)Sc1ccc(C(C)(C)C)cc1C")
"92 % of control"
>>> value("CSc1nc(N)c(C(=O)N2CCCCC2)s1")
"100 % of control"
>>> value("C=CCN=C(NC#N)SC")
"111 % of control"
>>> value("CSc1nc(N)c(C(=O)Nc2cccc3ccccc23)s1")
"97 % of control"
>>> value("O=[N+]([O-])c1cc(Cl)ccc1-c1ccccc1")
"87 % of control"
>>> value("O=C(O)CSc1nc(-c2nc3ccccc3s2)cn1-c1ccc(F)cc1")
"106 % of control"
>>> value("CC(C)(C)c1cc(C(c2ccccc2)(c2ccccc2)c2ccccc2)cc2c1[O][Sb]([c]1ccccc1)([c]1ccccc1)([c]1ccccc1)[NH]2")
"103 % of control"
>>> value("COc1ccc(C(=O)N2CC(O)=CC2=O)cc1")
"107 % of control"
>>> value("CCOC(=O)C1(n2[nH]c(=O)n(-c3ccccc3)c2=O)CC(C)OC1=O (stereo unspecified)")
"91 % of control"
>>> value("CN1CCN(CC(O)Cn2c(=O)c3c(nc(N4CCN(C)CC4)n3C)n(C)c2=O)CC1 (stereo unspecified)")
"102 % of control"
>>> value("NNC(=O)C(=O)NNC1CCCCC1")
"101 % of control"
>>> value("Cc1cc(C)c2c(c1)sc1nncn12")
"94 % of control"
>>> value("Nc1nc(Cl)cc(Cl)n1")
"99 % of control"
>>> value("CC1(C)CC(=O)C=C(NCCCCCCNC2=CC(=O)CC(C)(C)C2)C1")
"103 % of control"
>>> value("Cc1ccc2c(N(C)C)cc(N(C)C)nc2c1C")
"105 % of control"
>>> value("Cc1ccc(C(C)C)c(OC(=O)Nc2ccc(Cl)cc2)c1")
"87 % of control"
>>> value("CCOC(=O)c1ccc(NC(=O)SC2=NCCS2)cc1")
"103 % of control"
>>> value("Nc1nc2nn(-c3ccc(C(=O)NC(CCC(=O)O)C(=O)O)cc3)nc2c(=O)[nH]1 (stereo unspecified)")
"96 % of control"
>>> value("CCCCCCCCCCCCCCCC(=O)OCC(=O)OC")
"93 % of control"
>>> value("NC(CC(=O)c1ccc(O)cc1)C(=O)O (stereo unspecified)")
"100 % of control"
>>> value("CCCCCCCCCCCOCC(=O)O")
"92 % of control"
>>> value("CC(C)n1c(=O)nc(-c2ccccc2)c2cc3c(cc21)OCO3")
"108 % of control"
>>> value("O=C1CC(c2ccccc2)Oc2cc(O)cc(O)c21 (stereo unspecified)")
"98 % of control"
